- Test system: antioxidant response element (ARE)
- method notes: ARE luciferase reporter assay in HepG2-ARE-C8 cells
- Type: cell-based
- stated conditions: 0.1 μM, HepG2-ARE-C8, 12 h of treatment, mean ± SD n = 3; read-out: ARE Inductivity in Luciferase Reporter Assay (induction fold)
measure: fold induction at 0.1 µM
// return a plain number; no unit text

Consider the worked cases shown below.
{"columns": ["compound", "fold induction at 0.1 µM"],
 "data": [
  ["Nc1ccc(C(=O)C=C2NCC3c4ccccc4CCN3C2=O)cc1 (centres unmarked)", 1.26],
  ["O=C(C=C1NCC2c3ccccc3CCN2C1=O)C1CCCCC1 (centres unmarked)", 1.92],
  ["O=C(/C=C1\\NCC2c3ccccc3CCN2C1=O)c1cccc(F)c1 (centres unmarked)", 1.45],
  ["O=C(C=C1NCC2CCCCN2C1=O)c1ccco1 (centres unmarked)", 0.24],
  ["CC(=O)Nc1ccc(C(=O)C=C2NCC3c4ccccc4CCN3C2=O)cc1 (centres unmarked)", 1.24],
  ["O=C(C=C1NCC2CCCCN2C1=O)c1cccc2ccccc12 (centres unmarked)", 1.7],
  ["O=C(C=C1NCC2CCCCN2C1=O)c1nccs1 (centres unmarked)", 1.52],
  ["O=C(C=C1NCC2c3ccccc3CCN2C1=O)C1CC1 (centres unmarked)", 3.71]
]}

IN: Please supply the value of reported fold induction at 0.1 µM for the item O=C(C=C1NCC2CCCCN2C1=O)c1cccc(Cl)c1 (centres unmarked)
OUT: 1.85

IN: Please supply the value of reported fold induction at 0.1 µM for the item CC(C)(C)c1cc(O)ccc1O [tBHQ, tert-butylhydroquinone, reference compound]
OUT: 1

IN: Please supply the value of reported fold induction at 0.1 µM for the item O=C(C=C1NCC2c3ccccc3CCN2C1=O)c1ccc(N2CCOCC2)cc1 (centres unmarked)
OUT: 1.71
